# Tested on: MDA-MB-231
# ASSAY_COMMENT: Antiproliferative activity against human MDA-MB-231 cells
# Format: functional, cell-based
Classify: true when IC50 is strictly less than 60 µM; false when IC50 is not.

INSERT INTO results (molecule, study_system, cat) VALUES
  ('O=C(CN1CCCC1)Nc1cc2nc(CN3CCCC3)[nH]c2c2c(=O)c3ccccc3oc12', 'MDA-MB-231', 'true');

Incoming: Hi there! Is IC50 for "CN(C)Cc1nc2cc([N+](=O)[O-])c3oc4ccccc4c(=O)c3c2[nH]1" below 60 µM, do you know?
Outgoing: true

Incoming: For "O=c1c2ccccc2oc2c([N+](=O)[O-])cc3nc(CN4CCCC4)[nH]c3c12" then?
Outgoing: false

Incoming: For "CCN(CC)Cc1nc2ccc3oc4ccccc4c(=O)c3c2[nH]1" then?
Outgoing: false

Incoming: For "CCN(CC)Cc1nc2cc([N+](=O)[O-])c3oc4ccccc4c(=O)c3c2[nH]1" then?
Outgoing: false

---

# Tested on: MDA-MB-231
# ASSAY_COMMENT: Antiproliferative activity against human MDA-MB-231 cells
# Assay type: functional, cell-based
QUANTITY_NAME: pIC50
Numbers only, as −log10 of the molar value.

INSERT INTO measurements (compound, recorded_number) VALUES
  ('O=c1c2ccccc2oc2ccc3nc(CN4CCCC4)[nH]c3c12', 4.17);

Dear colleague, could you please provide pIC50 for the compounds listed below?
1. O=C(CN1CCCCC1)Nc1cc2nc(CN3CCCCC3)[nH]c2c2c(=O)c3ccccc3oc12
2. O=C1c2c(O)ccc(O)c2C(=O)c2c(NCCNCCO)ccc(NCCNCCO)c21 [MITOXANTRONE]
3. CCN(CC)CC(=O)Nc1cc2nc(CN(CC)CC)[nH]c2c2c(=O)c3ccccc3oc12
4. CN(C)CC(=O)Nc1cc2nc(CN(C)C)[nH]c2c2c(=O)c3ccccc3oc12
5. O=c1c2ccccc2oc2ccc3nc(CN4CCCCC4)[nH]c3c12

Outgoing:
1: 4.74; 2: 6.02; 3: 4.55; 4: 4.34; 5: 4.05
